All figures here come from PubChem BioAssay (NCI).

- protocol notes: NCI Yeast Anticancer Drug Screen. Data for the rad50EPP+ strain (AID 151);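 note: 0% = growth of vehicle-treated control cultures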
- assay setup: S. cerevisiae rad50 mutant strain, at 100.0 µM, active compounds read high
About 79,000 compounds went through this panel and 15% of them were active in at least one assay; those are over-represented in the sample as a whole.
Entries and their growth inhibition
Use % as the unit, but write only the number.

Worked examples, 6 compounds total:
{"columns": ["compound", "result value"],
 "data": [
  ["OC(COc1cccc2ccccc12)CN1CCOCC1 (stereo unspecified)", -3],
  ["COc1ccccc1C(=O)OCC1CCCN2CCCCC12 (stereo unspecified)", 98],
  ["FC(F)(F)c1cc(NC(=S)N2c3ccccc3-n3cccc3C2c2cccnc2)cc(C(F)(F)F)c1 (stereo unspecified)", 57],
  ["CC(C)=CC(=O)O[C@@H]1CC(C)(C)CC2C3=CCC4[C@]56CC[C@](O)(OC5)C(C)(C)C6CC[C@@]4(C)C3(C)CC[C@]21C(=O)O (stereo partly specified)", 6],
  ["CCN(CC)CCC(=O)c1ccc(Oc2ccc(F)cc2)cc1", 93],
  ["CCCN(CCC)CC(O)c1cc(-c2ccc(Cl)cc2)nc2c(C)c(Cl)ccc12 (stereo unspecified)", 96]
]}

For the next question, use this compound.
INPUT: What does the data say about its growth inhibition? Entry: CC(=O)ON1C(=O)c2cccc3cccc(c23)C1=O
OUTPUT: 57

* * *

- protocol notes: NCI Yeast Anticancer Drug Screen. Data for the rad50 strain (AID 155);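 note: 0% = growth of vehicle-only cultures of the same strain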
- assay setup: S. cerevisiae rad50 strain growth inhibition; at 50.0 µM (retest, dose inferred, filed as 5.0)
Compounds without any hit were thinned out: in the full panel of roughly 79,000, 15% have a hit. Activity calls are given as the source filed them. No stated cut-off is given here; in the data, active means growth inhibition above about 70%; inactive means the rest.
In this exercise, the only acceptable responses are T (active), F (inactive)

The following compounds have reported results that may help.
{"columns": ["compound", "assigned category"],
 "data": [
  ["COc1ccc(O)c(/C=N\\Nc2ccccc2)c1", "T"],
  ["COc1cc(CC2CC(c3ccc4c(c3)OCO4)OC2=O)cc(OC)c1OC (stereo not given)", "F"],
  ["O=C1Nc2ccc(Cl)c(I)c2C1=O", "F"]
]}

INPUT: Could you please tell me the result logged for COc1ccc2ccc3ccccc3c2c1C=O in this assay?
OUTPUT: F

INPUT: Could you please tell me the result logged for Cc1ccc(S(=O)(=O)NNC(=S)Nc2cccc3ccccc23)cc1 in this assay?
OUTPUT: F

* * *

- protocol notes: NCI Yeast Anticancer Drug Screen. Data for the rad52 strain (AID 147);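 note: 0% = growth of vehicle-treated control cultures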
- assay setup: S. cerevisiae rad52 mutant growth inhibition; at 100.0 µM
This is part of a sample that, as a whole, favours compounds with a hit. Of some 79,000 tested, about 15% had one in any assay. Activity calls are given as the source filed them. Cut-off read from the data, not from the text of the source: active = growth inhibition above about 70%; inactive = the rest.
In this exercise, the only acceptable responses are T for active, F for inactive

The following compounds have reported results that may help.
{"columns": ["compound", "assigned category"],
 "data": [
  ["CC(=O)OC1CCC2(C)C(=CCC3C4CCC5(OC6CC(C)CN(C(C)=O)C6C5C)C(C)=C4C(=O)C32)C1 (configuration not stated)", "T"],
  ["CN(C)C[C@H]1CC[C@@H](CN(C)C)C1=O", "F"],
  ["N#Cc1ccc(C2NN=CC23C(=O)c2ccccc2OC3c2ccccc2)cc1 (configuration not stated)", "F"],
  ["Cc1cc(I)ccc1N", "T"],
  ["Cc1ccc(CCC2=CCCc3c2ccc2ccccc32)cc1", "F"],
  ["CC(C)C1=CCC2C(=C1)CCC1C(C)(C(=O)O)CCCC21C (configuration not stated) (tested in a mixture with another compound)", "T"],
  ["COCCOC(=O)CCn1cc(F)c(=O)[nH]c1=O", "F"],
  ["CC1(C)[C@@H]2CC[C@]1(C)[C@H](OC(=O)CSC#N)C2", "T"]
]}

INPUT: Could you please tell me the result logged for CCCN(CCC)CC(O)c1cc(-c2ccc(Cl)cc2)nc2c(C)c(Cl)ccc12 (configuration not stated) in this assay?
OUTPUT: T

INPUT: Could you please tell me the result logged for O=C(c1cc(Br)ccc1O)c1cc(Br)ccc1O in this assay?
OUTPUT: T
